biological target: T1, BAFF (Sino biological, 10056-HNCH) (UniProt Q9Y275 134-285, biotinylated in the blocking ELISA (site not stated)); assay: competition ELISA: fusion protein pre-mixed with biotinylated BAFF, added to coated BAFF-R
T1 construct: also called BLyS
T1 sequence (Q9Y275 134-285 limits assumed): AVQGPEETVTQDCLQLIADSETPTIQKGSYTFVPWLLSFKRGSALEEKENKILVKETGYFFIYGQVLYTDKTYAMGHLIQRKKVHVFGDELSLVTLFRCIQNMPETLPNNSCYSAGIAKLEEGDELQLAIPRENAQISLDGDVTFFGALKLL
MEASUREMENT_LABEL: pIC50
Would you please state pIC50, meaning minus log10 of the concentration in mol/L, as a bare number?

pIC50 lookup needed for TACI-12-Fc (Fc fusion, TACI-9 truncated C-terminally by 3 amino acids, fused directly to Fc) SLSCRKEQGKFYDHLLRDCISCASICGQHPKQCAYFCEDKTHTCPPCPAPEAEGAPSVFLFPPKPKDTLMISRTPEVTCVVVDVSHEDPEVKFNWYVDGVEVHNAKTKPREEQYNSTYRVVSVLTVLHQDWLNGKEYKCKVSNKALPSSIEKTISKAKGQPREPQVYTLPPSRDELTKNQVSLTCLVKGFYPSDIAVEWESNGQPENNYKTTPPVLDSDGSFFLYSKLTVDKSRWQQGNVFSCSVMHEALHNHYTQKSLSLSPGK , thanks.
8.41
